Assay: qHTS Assay for Lipid Storage Modulators (AID 1519)
Details: Drosophila S3 cells, BODIPY lipid droplet/cell ratio, laser cytometry; measured here: cell count channel max response; cells loaded with oleic acid
Records with an inconclusive call do not appear.
Listed compounds paired with reported max response
Return type: number; implicit unit %.

Here's what some known entries look like.
chemical-smiles | recorded-result
Cc1noc(C)c1C(=O)N1CCC[C@@]2(CCN(C(=O)Nc3cccc(C#N)c3)C2)C1 | 14.6
CC(=O)N1CCC[C@@]2(CCN(C(c3ccccc3)c3ccccc3)C2)C1 | -3.73
COc1ccccc1CN1CC[C@@]2(CCCN(C(=O)c3ccncc3)C2)C1 | 8.53
CN[C@@H]1[C@H](O[C@@H]2O[C@H](CO)[C@@H](N)[C@H](O)[C@@H]2O)O[C@H]2C[C@@H](N)[C@@H](O[C@H]3[C@@H](O)[C@H](O)[C@H](N)C[C@@H]3N)O[C@H]2[C@H]1O | -10.4
CN1CCN(c2ncc3nc(-c4ccc(F)cc4)c(=O)n(C4CC4)c3n2)CC1 | 7.24
COc1ccccc1CNc1ncnc2ccc(-c3ccoc3)cc12 | 20
COc1ccc(-c2cc(=O)c3c(OC)c(OC)c(OC)c(OC)c3o2)cc1OC | -11.8
CC(C)CN1CC2(CCN(C(=O)c3cccc(F)c3)CC2)C1 | 11.5

# max response of Cn1cccc1C(=O)N1CCC2(CCN(Cc3ccncc3)CC2)CC1 = -5.01

max response in this record for Cn1cccc1C(=O)N1CCC2(CC1)CN(c1ccccn1)C2 : 7.05

In plain terms, c1cncc(CNc2nc(-c3ccc4c(c3)OCO4)nc3ccccc23)c1 has a documented max response of 10.1

For record O=S(=O)(c1ccccc1)N1CCC2(CCN(c3ccncc3)CC2)CC1 the listed max response is 9.97

The compound listed as COCC(=O)N1CCC2(CCCN(Cc3ccccc3)C2)CC1 has a reported max response of 22.3

Numbers sourced from PubChem BioAssay (NCATS).
